Tested on: Nucleic Acid
Assay: Induction of UV light-induced Escherichia coli pUC19 DNA cleavage assessed as conversion of supercoiled DNA into nicked form at 80 uM by neutral agarose gel electrophoresis
Type: nucleic-acid assay
Activity calls are given as the source filed them. The rule behind the calls is not given here.
Pick one and only one: T = active, F = inactive

Which outcome was entered for the compound O=C(O/N=C/c1cc2ccccc2nc1Cl)c1ccc(Cl)cc1 in this test?
T

Which outcome was entered for the compound COc1ccc(C(=O)O/N=C/c2cc3ccccc3nc2Cl)cc1 in this test?
F

Which outcome was entered for the compound O=C(O/N=C/c1cc2ccccc2nc1Cl)c1ccc(O)cc1 in this test?
F

====

System: Nucleic Acid
Test: Induction of UV light-induced Escherichia coli pUC19 DNA cleavage assessed as conversion of supercoiled DNA into linear form at 80 uM by neutral agarose gel electrophoresis
Format: nucleic-acid assay
Calls of active or inactive are those of the source. The rule behind the calls is not given here.
Pick one and only one: True for active, False for inactive

Completed entries (count: 4):
Which outcome was entered for the compound O=C(O/N=C/c1cc2ccccc2nc1Cl)c1ccc([N+](=O)[O-])cc1 in this test?
True

Which outcome was entered for the compound O=C(O/N=C/c1cc2ccccc2nc1Cl)c1ccc(Br)cc1 in this test?
True

Which outcome was entered for the compound COc1ccc(C(=O)O/N=C/c2cc3ccccc3nc2Cl)cc1 in this test?
False

Which outcome was entered for the compound O=C(O/N=C/c1cc2ccccc2nc1Cl)c1ccccc1F in this test?
True

Further cases:
Which outcome was entered for the compound O=C(O/N=C/c1cc2ccccc2nc1Cl)c1ccc(F)cc1 in this test?
True

Which outcome was entered for the compound O=C(O/N=C/c1cc2ccccc2nc1Cl)c1ccccc1 in this test?
False

Which outcome was entered for the compound O=C(O/N=C/c1cc2ccccc2nc1Cl)c1ccc(Cl)cc1 in this test?
True

Which outcome was entered for the compound O=C(O/N=C/c1cc2ccccc2nc1Cl)c1ccc(O)cc1 in this test?
False

Which outcome was entered for the compound O=C(O/N=C/c1cc2ccccc2nc1Cl)c1cc([N+](=O)[O-])cc([N+](=O)[O-])c1 in this test?
True
